biological target: myosin in bovine cardiac synthetic thick filaments (BcSTF) (Bos taurus, UniProt Q9BE39); experiment: Basal myosin ATPase activity; assay type: biochemical; conditions: read-out: Basal ATPase (BcSTF) IC50, 1 μM myosin, 23°C
Sequence (Q9BE39 whole entry): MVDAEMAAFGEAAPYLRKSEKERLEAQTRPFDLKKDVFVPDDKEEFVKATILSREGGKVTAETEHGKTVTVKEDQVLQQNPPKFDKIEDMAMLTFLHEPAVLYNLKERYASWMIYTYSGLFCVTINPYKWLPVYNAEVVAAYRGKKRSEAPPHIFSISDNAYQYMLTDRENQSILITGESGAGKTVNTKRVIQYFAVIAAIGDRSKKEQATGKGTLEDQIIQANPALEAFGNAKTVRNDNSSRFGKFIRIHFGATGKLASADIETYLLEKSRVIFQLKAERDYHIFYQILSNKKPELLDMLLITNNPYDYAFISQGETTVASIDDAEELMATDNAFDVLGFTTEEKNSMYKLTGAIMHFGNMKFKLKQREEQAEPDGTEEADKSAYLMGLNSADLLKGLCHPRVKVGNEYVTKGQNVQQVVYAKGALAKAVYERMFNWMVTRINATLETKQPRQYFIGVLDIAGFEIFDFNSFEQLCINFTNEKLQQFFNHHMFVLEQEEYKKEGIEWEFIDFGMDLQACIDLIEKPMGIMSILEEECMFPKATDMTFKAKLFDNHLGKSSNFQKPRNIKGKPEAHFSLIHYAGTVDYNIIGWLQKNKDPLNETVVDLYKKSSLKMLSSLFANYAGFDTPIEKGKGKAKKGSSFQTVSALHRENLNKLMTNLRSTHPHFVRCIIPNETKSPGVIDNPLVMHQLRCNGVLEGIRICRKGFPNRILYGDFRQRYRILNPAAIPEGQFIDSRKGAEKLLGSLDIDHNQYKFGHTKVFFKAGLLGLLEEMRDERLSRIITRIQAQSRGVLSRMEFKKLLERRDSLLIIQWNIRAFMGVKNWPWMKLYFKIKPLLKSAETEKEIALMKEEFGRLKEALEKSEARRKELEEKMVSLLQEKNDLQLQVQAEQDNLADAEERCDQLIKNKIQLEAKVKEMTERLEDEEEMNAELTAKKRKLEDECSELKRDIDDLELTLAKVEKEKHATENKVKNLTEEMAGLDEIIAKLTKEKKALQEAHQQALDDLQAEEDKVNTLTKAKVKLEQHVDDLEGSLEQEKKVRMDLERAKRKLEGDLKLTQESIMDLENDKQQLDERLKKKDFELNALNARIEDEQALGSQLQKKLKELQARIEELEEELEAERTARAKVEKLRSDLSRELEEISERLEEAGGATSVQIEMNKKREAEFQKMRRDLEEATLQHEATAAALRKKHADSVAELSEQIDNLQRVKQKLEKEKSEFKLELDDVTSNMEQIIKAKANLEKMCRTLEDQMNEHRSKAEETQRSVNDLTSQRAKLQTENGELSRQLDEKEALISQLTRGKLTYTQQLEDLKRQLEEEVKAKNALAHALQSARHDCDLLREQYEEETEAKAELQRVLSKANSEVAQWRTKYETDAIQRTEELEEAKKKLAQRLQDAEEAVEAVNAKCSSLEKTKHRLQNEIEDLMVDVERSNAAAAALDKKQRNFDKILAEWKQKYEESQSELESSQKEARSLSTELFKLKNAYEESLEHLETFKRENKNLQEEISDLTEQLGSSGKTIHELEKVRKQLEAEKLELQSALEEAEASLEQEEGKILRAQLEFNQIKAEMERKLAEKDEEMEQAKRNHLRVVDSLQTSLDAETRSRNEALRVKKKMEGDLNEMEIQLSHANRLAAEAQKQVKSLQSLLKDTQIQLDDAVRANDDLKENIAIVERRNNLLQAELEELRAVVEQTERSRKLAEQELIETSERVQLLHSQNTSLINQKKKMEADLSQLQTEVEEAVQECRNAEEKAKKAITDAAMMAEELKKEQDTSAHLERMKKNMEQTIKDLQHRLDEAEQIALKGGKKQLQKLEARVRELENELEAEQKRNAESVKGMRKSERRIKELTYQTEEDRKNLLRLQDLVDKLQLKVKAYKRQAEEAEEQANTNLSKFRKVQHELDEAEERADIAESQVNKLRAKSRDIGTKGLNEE
Sequence (P85100 whole entry partner): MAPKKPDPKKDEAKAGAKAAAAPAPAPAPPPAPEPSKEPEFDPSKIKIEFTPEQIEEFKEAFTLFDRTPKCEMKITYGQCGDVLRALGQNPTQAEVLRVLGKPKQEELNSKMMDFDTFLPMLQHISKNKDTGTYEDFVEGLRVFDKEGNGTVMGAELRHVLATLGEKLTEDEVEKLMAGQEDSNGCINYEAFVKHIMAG
Sequence (Q3SZE5 whole entry partner): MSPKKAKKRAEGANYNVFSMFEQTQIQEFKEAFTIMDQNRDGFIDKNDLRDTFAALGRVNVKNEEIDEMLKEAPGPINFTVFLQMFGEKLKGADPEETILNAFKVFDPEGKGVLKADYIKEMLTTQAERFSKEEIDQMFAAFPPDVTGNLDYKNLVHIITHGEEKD
test readout: IC50

*Q* Determine from records and report IC50 for Cc1ccc2c(c1)C(=O)[C@]1(O)CCN(c3ccc([N+](=O)[O-])cc3)C1=N2
*A* 2.37 µM

---

biological target: bovine cardiac myofibrils (BcMF) (Bos taurus, UniProt Q9BE39); test: Single mant-ATP turnover kinetics in BcMF; details: read-out: SRX Amplitude, Aslow (BcMF), half-maximal increase
Sequence (Q9BE39 whole entry): as the sequence (Q9BE39 whole entry) above
Sequence (P85100 whole entry partner): as the sequence (P85100 whole entry partner) above
Sequence (Q3SZE5 whole entry partner): as the sequence (Q3SZE5 whole entry partner) above
pEC50: −log10 of the molar value.
test readout: pEC50

*Q* Determine from records and report pEC50 for Cc1ccc2c(c1)C(=O)[C@]1(O)CCN(c3ccc([N+](=O)[O-])cc3)C1=N2 [Para-nitroblebbistatin, para-nitroblebbistatin]
*A* < 4.90
